- Target Under Test: KRAS WT (Homo sapiens)
- Assay Overview: HTRF assay, interaction of GST-tagged K-Ras with His-tagged hSOS1 (KRAS wildtype)
- Condition Label: <500 nM, read-out: Inhibition of KRAS WT (IC50)
Value Kind: IC50

CC(CN(C)C(=O)n1ccnc1)N1c2nc(OC[C@@]34CCCN3C[C@H](F)C4)nc3c(F)c(-c4ccc(F)c5sc(N)c(C#N)c45)c(Cl)c(c23)OC[C@@H]1[C@H](C)O (stereo partly drawn) [Compound 467] ... < 500 nM
Cc1cn(C(=O)N2CC[C@@H](N3C[C@H](C)Oc4c(Cl)c(-c5ccc(F)c6sc(N)c(C#N)c56)c(F)c5nc(OC[C@@]67CCCN6C[C@H](F)C7)nc3c45)[C@H]2C)c(C)n1 [Compound 464] ... < 500 nM

Qu. Reported IC50 for CN1[C@H](C2CC2)[C@@H]1C(=O)N1CC(CN2CCOc3c(Cl)c(-c4ccc(F)c5sc(N)c(C#N)c45)c(F)c4nc(OC[C@@]56CCCN5C[C@H](F)C6)nc2c34)C1 (stereo partly drawn) [Compound 460] : what is it?
Ans. < 500 nM

---

- Target Under Test: KRAS G12S (Homo sapiens, UniProt P01116, G12S)
- Sequence (P01116 1-188 isoform P01116-2 G12S): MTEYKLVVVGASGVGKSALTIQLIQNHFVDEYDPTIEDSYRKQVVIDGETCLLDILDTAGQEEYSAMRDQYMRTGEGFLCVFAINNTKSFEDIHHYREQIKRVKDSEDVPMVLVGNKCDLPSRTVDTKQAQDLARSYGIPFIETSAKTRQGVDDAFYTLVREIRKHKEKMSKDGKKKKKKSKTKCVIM
- Assay Overview: HTRF assay, interaction of GST-tagged K-Ras with His-tagged hSOS1 (KRAS G12S)
- Condition Label: <500 nM, read-out: Inhibition of KRAS G12S (IC50)
Value Kind: IC50

N#Cc1c(N)sc2c(F)ccc(-c3c(Cl)c4c5c(nc(OC[C@@]67CCCN6C[C@H](F)C7)nc5c3F)N(CC3CN(C(=O)C5=CCCC5)C3)CCO4)c12 [Compound 462] ... < 500 nM
C[C@H](O)[C@H]1COc2c(Cl)c(-c3ccc(F)c4sc(N)c(C#N)c34)c(F)c3nc(OC[C@@]45CCCN4C[C@H](F)C5)nc(c23)N1CC1CCN(C(=O)n2ccnc2)C1 (stereo partly drawn) [Compound 419] ... < 500 nM

Qu. Reported IC50 for CN1[C@H](C2CC2)[C@@H]1C(=O)N1CC(CN2CCOc3c(Cl)c(-c4ccc(F)c5sc(N)c(C#N)c45)c(F)c4nc(OC[C@@]56CCCN5C[C@H](F)C6)nc2c34)C1 (stereo partly drawn) [Compound 440] : what is it?
Ans. < 500 nM

---

Measured pIC50, listed per entry.
- Target Under Test: KRAS WT (Homo sapiens, UniProt P01116)
- Construct: made in house; host or cells: E. coli BL21 (DE3)
- Sequence (P01116 1-188 isoform P01116-2): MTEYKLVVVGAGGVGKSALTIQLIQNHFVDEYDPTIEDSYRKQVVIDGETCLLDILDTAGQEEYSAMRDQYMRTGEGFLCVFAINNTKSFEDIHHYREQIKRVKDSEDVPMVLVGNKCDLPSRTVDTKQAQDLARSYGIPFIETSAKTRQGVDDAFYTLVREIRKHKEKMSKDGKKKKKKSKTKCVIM
- Assay Overview: HTRF assay, interaction of GST-tagged K-Ras with His-tagged hSOS1 (KRAS wildtype)
- Format: biochemical
- Condition Label: <500 nM, read-out: Inhibition of KRAS WT (IC50)
pIC50: −log10 of the molar value.

Consider the worked cases shown below.
C[C@H](O)[C@H]1COc2c(Cl)c(-c3ccc(F)c4sc(N)c(C#N)c34)c(F)c3nc(OC[C@@]45CCCN4C[C@H](F)C5)nc(c23)N1C[C@@H]1CN(C(=O)n2ccnc2)[C@@H]1C (single isomer, unassigned) ... > 6.30
C[C@@H]1[C@H](N2CCOc3c(Cl)c(-c4ccc(F)c5sc(N)c(C#N)c45)c(F)c4nc(OC[C@@]56CCCN5C[C@H](F)C6)nc2c34)CCN1C(=O)n1ccnc1 (single isomer, unassigned) ... > 6.30
COCC1([C@@H]2[C@H](CN3CCOc4c(Cl)c(-c5ccc(F)c6sc(N)c(C#N)c56)c(F)c5nc(OC[C@@]67CCCN6C[C@H](F)C7)nc3c45)CN2C(=O)n2cnc(C)c2)CC1 ... > 6.30

Next up:
Qu. Reported pIC50 for `Cc1cn(C(=O)N2CC[C@@H](N3C[C@H](C)Oc4nc(-c5cc(N)c(F)c(C)c5C(F)(F)F)c(F)c5nc(OC[C@@]67CCCN6C[C@H](F)C7)nc3c45)[C@H]2C)c(C)n1` : what is it?
Ans. > 6.30

These data points were gathered from patent US12606572B2.
